- ASSAY_DETAILS: in vitro
- EXPERIMENTAL_CONTEXT: mouse, RAW264.7 cells, Cell viability (Fig. S2e), RAW264.7 (48h), XQ2 0.63 μM
Square brackets hold non-standard residues; d marks the D form. Peptide text beside a SMILES is read from it.
MEASURED_QUANTITY: viability at 48 h, 0.63 µM (%)
One number for each entry, in %.

IN: Please report viability at 48 h, 0.63 µM for the following compound: CC(C)C[C@@H]1NC(=O)[C@H](CCCNC(=N)N)NC(=O)[C@H](C(C)C)NC(=O)[C@@H]2CCCN2C(=O)[C@@H](Cc2ccccc2)NC(=O)[C@H](CC(C)C)NC(=O)[C@H](CCCNC(=N)N)NC(=O)[C@H](C(C)C)NC(=O)[C@H](C)NC(=O)[C@@H](Cc2ccccc2)NC1=O [XQ2, Cyclo (LfAVRLfPVR)] (cyclo(L[dF]AVRL[dF]PVR))
OUT: 104

----------
- TARGET_OR_TEST_SYSTEM: recombinant human cGAS enzyme (hcGAS-ΔN, residues 147–522) (Homo sapiens, UniProt Q8N884)
- Construct: N-terminally truncated human cGAS (hcGAS-ΔN, residues 147–522); 6xHis-SUMO (N, cleaved yes); made in house; host or cells: Escherichia coli BL21 (DE3)
- Sequence (Q8N884 147-522, stated change not applied): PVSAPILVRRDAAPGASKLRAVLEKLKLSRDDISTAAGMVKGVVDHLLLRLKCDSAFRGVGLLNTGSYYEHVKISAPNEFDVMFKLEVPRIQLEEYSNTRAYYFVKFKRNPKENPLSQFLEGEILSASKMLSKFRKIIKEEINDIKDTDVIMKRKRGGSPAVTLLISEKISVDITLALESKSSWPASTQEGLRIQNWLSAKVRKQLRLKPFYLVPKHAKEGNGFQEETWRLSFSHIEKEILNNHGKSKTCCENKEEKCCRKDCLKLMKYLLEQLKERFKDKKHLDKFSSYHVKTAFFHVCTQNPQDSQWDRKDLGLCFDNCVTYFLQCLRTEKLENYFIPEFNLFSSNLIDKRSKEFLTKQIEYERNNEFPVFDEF
- ASSAY_DETAILS: RNA-based fluorescent biosensor assay of cGAS activity (2',3'-cGAMP formation), in vitro screening
- Format: biochemical
- EXPERIMENTAL_CONTEXT: peptides screened at 20 μM; Supplementary Table 1 / Fig. S5b; read-out: Inhibition %
Square brackets hold non-standard residues; d marks the D form. Peptide text beside a SMILES is read from it.
MEASURED_QUANTITY: inhibition at 20 µM

{"MOLECULE": "CC(C)C[C@@H]1NC(=O)[C@H](CCCNC(=N)N)NC(=O)[C@H]([C@@H](C)O)NC(=O)[C@@H]2CCCN2C(=O)[C@@H](Cc2ccccc2)NC(=O)[C@H](CC(C)C)NC(=O)[C@H](CCCNC(=N)N)NC(=O)[C@H]([C@@H](C)O)NC(=O)[C@@H]2CCCN2C(=O)CNC1=O [XQ32, Cyclo (LgPTRLfPTR)] (cyclo(GPTRL[dF]PTRL))", "TARGET_OR_TEST_SYSTEM": "recombinant human cGAS enzyme (hcGAS-ΔN, residues 147–522) (Homo sapiens, UniProt Q8N884)", "inhibition at 20 µM": "30%"}
{"MOLECULE": "CC(C)C[C@@H]1NC(=O)[C@H](CCCNC(=N)N)NC(=O)[C@H](C(C)C)NC(=O)[C@@H]2CCCN2C(=O)[C@@H](Cc2ccccc2)NC(=O)[C@H](C)NC(=O)[C@H](CC(C)C)NC(=O)[C@H](C(C)C)NC(=O)[C@@H]2CCCN2C(=O)[C@@H](Cc2ccccc2)NC1=O [XQ50, Cyclo (LfPVLAfPVR)] (cyclo(A[dF]PVRL[dF]PVL))", "TARGET_OR_TEST_SYSTEM": "recombinant human cGAS enzyme (hcGAS-ΔN, residues 147–522) (Homo sapiens, UniProt Q8N884)", "inhibition at 20 µM": "0%"}

Now take the following molecule into account.
IN: Lab note: record inhibition at 20 µM of CC(C)C[C@@H]1NC(=O)[C@H](CCCNC(=N)N)NC(=O)[C@H]([C@@H](C)O)NC(=O)[C@@H]2CCCN2C(=O)[C@@H](Cc2ccccc2)NC(=O)[C@H](C)NC(=O)[C@H](CC(=O)O)NC(=O)[C@H](C)NC(=O)[C@@H]2CCCN2C(=O)[C@@H](Cc2ccccc2)NC1=O [XQ79, Cyclo (LfPADAfPTR)] (cyclo(ADA[dF]PTRL[dF]P)) tested on recombinant human cGAS enzyme (hcGAS-ΔN, residues 147–522) (Homo sapiens, UniProt Q8N884).
OUT: 0%

Data credit: paper PMC10545747
